B1: POU domain, class 3, transcription factor 4, residues 280 to 335; numbered along this chain, P49335 (parent)
chain: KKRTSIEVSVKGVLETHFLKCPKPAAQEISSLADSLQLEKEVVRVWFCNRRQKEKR

Variants of: B1
Assay: abundance fitness (aPCA) (normalised: wild type 0, dead -1); higher = more abundant; growth selection in yeast, the domain comes from the species named
Conditions: Homo sapiens
Let's look at some variants and their measured abundance fitness.
Number, no unit, nothing else.

Examples from the recorded data:
[[record]]
mutation_label = "Q27V"
observed_value = -0.434

[[record]]
mutation_label = "E7Q"
observed_value = 0.013

[[record]]
mutation_label = "E7R"
observed_value = -0.093

[[record]]
mutation_label = "C48G"
observed_value = -0.526

[[record]]
mutation_label = "V43Y"
observed_value = -0.545

[[record]]
mutation_label = "V13Y"
observed_value = -0.354


Switching to the query record.
Please look up its abundance fitness: `K55M`
-0.264

All figures here come from the Human Domainome abundance scans (Beltran et al. 2025).
